System: biotinyl-Phe-oxazolone
Method notes: self-aminoacylation, catalytic enhancement (BFO) (fold over background); higher = more active; k-Seq, kA / k0A0; sequences stand for … in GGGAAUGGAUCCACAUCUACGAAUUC…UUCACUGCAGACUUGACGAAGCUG
Variants at the floor of the assay were thinned out.
We use 20 as the dividing line for self-aminoacylation: on or above the line is Fulfilled, below is Not fulfilled.

{"columns": ["Entry sequence", "Classification"],
 "data": [
  ["AAGUCGGCUAAUAGUCGCAAG [Fam3.1 aminoacylation ribozyme variant]", "Not fulfilled"],
  ["AUUCACCUAGGCAAUCGGGUG [Fam2.2 aminoacylation ribozyme variant]", "Fulfilled"],
  ["CCACUUCAAACAAUCGGUCGG [Fam1A.1 aminoacylation ribozyme variant]", "Fulfilled"],
  ["AUGCUUGCUAAUAGUCGCAAG [Fam3.1 aminoacylation ribozyme variant]", "Not fulfilled"],
  ["AAGCUUGCUAAUAGUCGAAAG [Fam3.1 aminoacylation ribozyme variant]", "Not fulfilled"]
]}

Record AUUCACCUGGGUCAUCGGGGG [Fam2.2 aminoacylation ribozyme variant] ; criterion: self-aminoacylation no lower than 20. Met?
Fulfilled

Record AAUUUUGCUAAUCGUCGCAAG [Fam3.1 aminoacylation ribozyme variant] ; criterion: self-aminoacylation no lower than 20. Met?
Not fulfilled

Record CCAAACUUCAAGCAAUAGGUC [Fam1B.1 aminoacylation ribozyme variant] ; criterion: self-aminoacylation no lower than 20. Met?
Not fulfilled

* * *

Test system: biotinyl-Trp-oxazolone
Method notes: self-aminoacylation, catalytic enhancement (BWO) (fold over background); higher = more active; k-Seq, kA / k0A0; sequences stand for … in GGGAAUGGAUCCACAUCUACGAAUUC…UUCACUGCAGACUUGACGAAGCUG
Variants at the floor of the assay were thinned out.
We use 7 as the dividing line for self-aminoacylation: on or above the line is y, below is n.

Would you please look over these solved cases?
{"columns": ["Entry sequence", "Classification"],
 "data": [
  ["CUAAUUCAAACUAUCGGUCUG [Fam1A.1 aminoacylation ribozyme variant]", "n"],
  ["AUUACCCUGGUCAUCCAGUGA [Fam2.1 aminoacylation ribozyme variant]", "n"],
  ["CUGCUUCAUACAAUCGGUCUG [Fam1A.1 aminoacylation ribozyme variant]", "n"],
  ["CCGCGCUUCAAGCAAUCGGUC [Fam1B.1 aminoacylation ribozyme variant]", "y"]
]}

Record AUUACCCGGAUCAUCGAGUGA [Fam2.1 aminoacylation ribozyme variant] ; criterion: self-aminoacylation no lower than 7. Met?
y

Record AUUACCCUGGUCCUCGAGUGA [Fam2.1 aminoacylation ribozyme variant] ; criterion: self-aminoacylation no lower than 7. Met?
n

Record ACACACUUCAAUCAAUCGGUC [Fam1B.1 aminoacylation ribozyme variant] ; criterion: self-aminoacylation no lower than 7. Met?
y

Record CCAUACUUCAAGCAAUCGAUC [Fam1B.1 aminoacylation ribozyme variant] ; criterion: self-aminoacylation no lower than 7. Met?
n

* * *

Test system: biotinyl-Val-oxazolone
Method notes: self-aminoacylation, catalytic enhancement (BVO) (fold over background); higher = more active; k-Seq, kA / k0A0; sequences stand for … in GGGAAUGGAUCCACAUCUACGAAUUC…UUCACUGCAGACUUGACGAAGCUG
Fewer inactive variants are shown than the library holds.
Class (required): determined from self-aminoacylation; valid ranges are class 0 (below 2), class 1 (2 to below 6), class 2 (6 or more)

{"columns": ["Entry sequence", "Classification"],
 "data": [
  ["AUCACCCUGGUCAUCGAGCGA [Fam2.1 aminoacylation ribozyme variant]", "class 1"],
  ["UUUACCCUGGUCAUCGAGUGG [Fam2.1 aminoacylation ribozyme variant]", "class 2"],
  ["AUUUCCCUGGUCAUCGAGGGA [Fam2.1 aminoacylation ribozyme variant]", "class 0"],
  ["CUACUGCCAACAAUCGGUCUG [Fam1A.1 aminoacylation ribozyme variant]", "class 0"],
  ["CUACUCCAAACACUCGGUCUG [Fam1A.1 aminoacylation ribozyme variant]", "class 0"],
  ["CCACACUUCCGGCAAUCGGUC [Fam1B.1 aminoacylation ribozyme variant]", "class 1"],
  ["AUUACCCUGUUGAUCGAGUGA [Fam2.1 aminoacylation ribozyme variant]", "class 1"]
]}

In the following, a different sequence is considered.
For the record GUUCCCCUAGGUCAUCGGGUG [Fam2.2 aminoacylation ribozyme variant] , report the class its self-aminoacylation corresponds to.
class 2

* * *

Tested on: biotinyl-Trp-oxazolone
Method notes: self-aminoacylation, catalytic enhancement (BWO) (fold over background); higher = more active; k-Seq, kA / k0A0; sequences stand for … in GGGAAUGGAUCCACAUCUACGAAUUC…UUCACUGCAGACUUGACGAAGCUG
Fewer inactive variants are shown than the library holds.
Class (required): determined from self-aminoacylation; valid ranges are LOW (below 2), MEDIUM (2 to below 4), HIGH (4 or more)

{"columns": ["Entry sequence", "Classification"],
 "data": [
  ["AAGUCUGUUAAUAGUCGCAAG [Fam3.1 aminoacylation ribozyme variant]", "LOW"],
  ["CCACGCUUCAAGAAAUCGGUC [Fam1B.1 aminoacylation ribozyme variant]", "HIGH"],
  ["GUUACCCUGGUCACCGAGUGA [Fam2.1 aminoacylation ribozyme variant]", "HIGH"],
  ["AUUCACGAAGGUCAUCGGGUG [Fam2.2 aminoacylation ribozyme variant]", "HIGH"]
]}

For the record CCACACUCCAAUCAAUCGGUC [Fam1B.1 aminoacylation ribozyme variant] , report the class its self-aminoacylation corresponds to.
MEDIUM

For the record CCACACUUCAAGCAACCAGUC [Fam1B.1 aminoacylation ribozyme variant] , report the class its self-aminoacylation corresponds to.
LOW

For the record CCACACUUCGAGCAAUCGGUU [Fam1B.1 aminoacylation ribozyme variant] , report the class its self-aminoacylation corresponds to.
LOW

For the record AUUCACCUAGGUCCUCGGGUG [Fam2.2 aminoacylation ribozyme variant] , report the class its self-aminoacylation corresponds to.
HIGH

For the record AAGAUUGCCAAUAGUCGCAAG [Fam3.1 aminoacylation ribozyme variant] , report the class its self-aminoacylation corresponds to.
LOW

For the record CUACUUCAAAGAAUCGGUGUG [Fam1A.1 aminoacylation ribozyme variant] , report the class its self-aminoacylation corresponds to.
LOW

For the record AUUACCCUAGUCAUCGAGUUA [Fam2.1 aminoacylation ribozyme variant] , report the class its self-aminoacylation corresponds to.
LOW

* * *

Entries annotated with measured self-aminoacylation
Tested on: biotinyl-Met-oxazolone
Method notes: self-aminoacylation, catalytic enhancement (BMO) (fold over background); higher = more active; k-Seq, kA / k0A0; sequences stand for … in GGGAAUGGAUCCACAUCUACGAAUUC…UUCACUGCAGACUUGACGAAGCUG
This sample holds only a part of the variants without activity.
Output spec: single numeric token, no unit.

Take a look at these entries with their results.
{"columns": ["Entry sequence", "Value observed"],
 "data": [
  ["GUUCCCCUAGGUCAUCGGGUG [Fam2.2 aminoacylation ribozyme variant]", 13.3],
  ["AAAUUUCCUAAUAGUCGCAAG [Fam3.1 aminoacylation ribozyme variant]", 1.1],
  ["CUACUUCGUACAAUCGGUCUG [Fam1A.1 aminoacylation ribozyme variant]", 0.519],
  ["UUACUUCAAACAAUCGGUGUG [Fam1A.1 aminoacylation ribozyme variant]", 1.97],
  ["AUUCACCUAUGUCAUCGGGGG [Fam2.2 aminoacylation ribozyme variant]", 2]
]}

Please look up its self-aminoacylation: AAGUUCGCCAAUAGUCGCAAG [Fam3.1 aminoacylation ribozyme variant]
2.18

Please look up its self-aminoacylation: AUUCACCGAGGGCAUCGGGUG [Fam2.2 aminoacylation ribozyme variant]
5.18

Please look up its self-aminoacylation: AUACACCUAGGACAUCGGGUG [Fam2.2 aminoacylation ribozyme variant]
2.98

Please look up its self-aminoacylation: AUUAUCUUGGUCAUCGAGUGA [Fam2.1 aminoacylation ribozyme variant]
5.16

* * *

Tested on: biotinyl-Trp-oxazolone
Method notes: self-aminoacylation, catalytic enhancement (BWO) (fold over background); higher = more active; k-Seq, kA / k0A0; sequences stand for … in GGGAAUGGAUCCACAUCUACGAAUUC…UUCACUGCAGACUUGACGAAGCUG
Variants at the floor of the assay were thinned out.
Property name: self-aminoacylation

Take a look at these entries with their results.
{"columns": ["Entry sequence", "Tested target", "Property name", "Value observed"],
 "data": [
  ["CUACUUCAAACAAUCGAUCAG [Fam1A.1 aminoacylation ribozyme variant]", "biotinyl-Trp-oxazolone", "self-aminoacylation", 0.617],
  ["AUUAUCCUGGACAUCGAGUGA [Fam2.1 aminoacylation ribozyme variant]", "biotinyl-Trp-oxazolone", "self-aminoacylation", 8.19],
  ["AUUCACUUAGGUCAUCGUGUG [Fam2.2 aminoacylation ribozyme variant]", "biotinyl-Trp-oxazolone", "self-aminoacylation", 0.747],
  ["CCACCCUUCAACCAAUCGGUC [Fam1B.1 aminoacylation ribozyme variant]", "biotinyl-Trp-oxazolone", "self-aminoacylation", 26.2],
  ["AUUCACCUAGGCAAUCGGGUG [Fam2.2 aminoacylation ribozyme variant]", "biotinyl-Trp-oxazolone", "self-aminoacylation", 3.92],
  ["AUUGCCCUGGUCAUCGAGCGA [Fam2.1 aminoacylation ribozyme variant]", "biotinyl-Trp-oxazolone", "self-aminoacylation", 3.11]
]}

Please look up its self-aminoacylation: CUAAUUCAAACCAUCGGUCUG [Fam1A.1 aminoacylation ribozyme variant]
0.589

Please look up its self-aminoacylation: AUUACCCUGGUCAUCUAGUAA [Fam2.1 aminoacylation ribozyme variant]
0.903

Please look up its self-aminoacylation: AUUGACCUAGGUAAUCGGGUG [Fam2.2 aminoacylation ribozyme variant]
3.73

Please look up its self-aminoacylation: AAGUUUGGUAAUAGUCGCAAG [Fam3.1 aminoacylation ribozyme variant]
1.38

Please look up its self-aminoacylation: AUUCAGCUAGGUCAUCGGGAG [Fam2.2 aminoacylation ribozyme variant]
1.32
